Target: T1, human OX40 on cells (CHO-hOX40, 293HEK-hOX40, Jurkat-hOX40, activated primary CD4+ T cells) (human, UniProt P43489 29-277)
T1 sequence (looked up): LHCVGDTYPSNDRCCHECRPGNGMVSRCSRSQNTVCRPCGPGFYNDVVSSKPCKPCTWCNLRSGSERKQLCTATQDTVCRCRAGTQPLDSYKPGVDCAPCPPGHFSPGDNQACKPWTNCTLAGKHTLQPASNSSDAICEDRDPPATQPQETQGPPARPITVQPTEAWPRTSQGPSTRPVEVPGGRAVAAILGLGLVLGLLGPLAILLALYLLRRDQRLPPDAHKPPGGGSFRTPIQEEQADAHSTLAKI
Assay: cell-based or functional assay
Measured Parameter: NFkB-Luc fold change in Jurkat stimulated by anti-CD3+ anti-CD28
# output: numeric value plus its unit

query: What does the record list as NFkB-Luc fold change in Jurkat stimulated by anti-CD3+ anti-CD28 for OX40L (control reagent; recombinant OX40L, Acro Biosystems) (ligand, UniProt P23510 51-183, looked up, may be the same reagent as OX40L-hFc) QVSHRYPRIQSIKVQFTEYKKEKGFILTSQKEDEIMKVQNNSVIINCDGFYLISLKGYFSQEVNISLHYQKDEEPLFQLKKVRSVNSLMVASLTYKDKVYLNVTTDNTSLDDFHVNGGELILIHQNPGEFCVL ?
result: 4.05 fold over IgG4 control
